target: 72 kDa type IV collagenase (Homo sapiens, UniProt P08253)
Sequence (P08253 whole entry): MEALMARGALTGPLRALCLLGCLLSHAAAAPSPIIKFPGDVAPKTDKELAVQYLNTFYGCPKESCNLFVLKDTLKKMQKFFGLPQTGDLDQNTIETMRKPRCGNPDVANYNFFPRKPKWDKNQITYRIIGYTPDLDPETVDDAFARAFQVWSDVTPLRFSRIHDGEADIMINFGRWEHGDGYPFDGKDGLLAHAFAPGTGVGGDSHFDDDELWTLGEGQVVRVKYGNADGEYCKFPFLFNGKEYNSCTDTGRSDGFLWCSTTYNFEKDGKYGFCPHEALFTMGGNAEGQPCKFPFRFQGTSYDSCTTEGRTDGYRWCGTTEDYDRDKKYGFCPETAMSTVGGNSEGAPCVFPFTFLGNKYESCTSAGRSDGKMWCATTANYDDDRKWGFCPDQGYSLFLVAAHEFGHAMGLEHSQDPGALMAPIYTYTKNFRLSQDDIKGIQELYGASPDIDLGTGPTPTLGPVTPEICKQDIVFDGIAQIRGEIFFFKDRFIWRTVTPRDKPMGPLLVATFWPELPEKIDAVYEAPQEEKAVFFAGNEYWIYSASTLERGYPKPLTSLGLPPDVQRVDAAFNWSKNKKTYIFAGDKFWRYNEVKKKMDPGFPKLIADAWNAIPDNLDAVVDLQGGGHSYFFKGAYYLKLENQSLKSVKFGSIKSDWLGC
parameter: Ki

1) COc1ccc(-c2ccc(S(=O)(=O)N[C@H](C(C)C)P(=O)(O)O)cc2)cc1 = 1200 nM

====

target: Stromelysin-1 (Homo sapiens)
Sequence (P08254 whole entry): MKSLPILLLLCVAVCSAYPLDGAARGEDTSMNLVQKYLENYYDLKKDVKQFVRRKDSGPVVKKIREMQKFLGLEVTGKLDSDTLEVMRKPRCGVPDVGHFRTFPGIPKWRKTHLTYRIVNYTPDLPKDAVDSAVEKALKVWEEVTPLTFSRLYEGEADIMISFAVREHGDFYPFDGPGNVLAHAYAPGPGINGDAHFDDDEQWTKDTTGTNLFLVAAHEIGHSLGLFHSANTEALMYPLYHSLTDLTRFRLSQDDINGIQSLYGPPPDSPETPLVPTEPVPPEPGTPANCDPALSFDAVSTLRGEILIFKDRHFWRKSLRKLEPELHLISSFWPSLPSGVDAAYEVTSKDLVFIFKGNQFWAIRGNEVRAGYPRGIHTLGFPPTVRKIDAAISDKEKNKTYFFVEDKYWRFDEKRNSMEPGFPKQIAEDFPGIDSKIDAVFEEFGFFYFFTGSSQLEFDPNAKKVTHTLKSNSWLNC
pKi: −log10 of the molar value.
parameter: pKi

1. COc1ccc(-c2ccc(S(=O)(=O)N[C@@H](C(C)C)P(=O)(O)O)cc2)cc1 = 7.40
